Multi-source literature compilation: pIC50 on UniProt:P78356.
pIC50: −log10 of the molar value.

Worked cases, answers included:
Per the records, this compound ( O=C1CCCN1c1ccc(-c2cncc(-c3c[nH]c4ncccc34)c2)cc1 ) has pIC50 equal to 6.00 to 7.00

// pIC50 lookup, compound = COc1nc(Nc2cncc(N3CC[C@H](N(C)C)C3)c2)ncc1-c1ccc(-c2nnccc2C)cc1 , result: 7.00 to 8.00

---
The compound identified as CC1Oc2cc(N3CCCC3=O)ccc2-c2cnc(Nc3cncc(NC(=O)c4cccnc4)c3)cc21 (stereo not shown) registered its pIC50 at 7.00 to 8.00

// pIC50 lookup, compound = O=C1CCCN1c1ccc(-c2ccc(Nc3cnc4c(c3)N(S(=O)(=O)C3CC3)CCO4)nc2)cc1 , result: 7.00 to 8.00

---

The entries that follow carry IC50 values tested on PIP4K2B (Homo sapiens, UniProt P78356), drawn from several published reports.
Sequence (P78356 whole entry, species assumed): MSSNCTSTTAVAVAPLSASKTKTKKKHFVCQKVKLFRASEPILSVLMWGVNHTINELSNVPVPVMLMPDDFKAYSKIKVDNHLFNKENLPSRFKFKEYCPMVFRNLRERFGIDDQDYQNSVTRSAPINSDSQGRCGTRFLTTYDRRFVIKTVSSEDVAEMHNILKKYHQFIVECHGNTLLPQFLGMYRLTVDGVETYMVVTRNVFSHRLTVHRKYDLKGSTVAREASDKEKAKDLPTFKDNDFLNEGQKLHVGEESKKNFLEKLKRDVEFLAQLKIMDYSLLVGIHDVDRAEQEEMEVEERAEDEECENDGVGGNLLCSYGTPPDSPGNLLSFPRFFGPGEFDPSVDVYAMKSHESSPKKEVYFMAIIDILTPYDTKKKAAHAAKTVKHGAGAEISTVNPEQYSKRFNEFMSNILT

Look over these answered cases.
The measured IC50 that CC(C)n1cnnc1-c1ccc(-c2cncc(-c3ccnc4[nH]c(C(=O)NCCc5ccncc5)cc34)c2)cc1 showed for PIP4K2B (Homo sapiens, UniProt P78356) is 10 to 100 nM

IC50 value, target or system PIP4K2B (Homo sapiens, UniProt P78356), for Cc1cnnn1-c1ccc2c(c1)OC(C)(C)c1nc(Nc3cnc4c(c3)N(CC3COC3)CCO4)ncc1-2 : 1 to 10 nM

Reported IC50 (PIP4K2B (Homo sapiens, UniProt P78356)) for entry CN(C)C/C=C/C(=O)Nc1cccc(C(=O)Nc2cncc(Nc3ccc(-c4ccc(C(=O)N(C)C)cc4)cn3)c2)c1 is 10 to 100 nM

# IC50 measured on PIP4K2B (Homo sapiens, UniProt P78356) for item CC1Oc2cc(N3CCCC3=O)ccc2-c2cnc(Nc3cncc(N4CCNC4=O)c3)cc21 (stereo not shown) = 10 to 100 nM

The reported PIP4K2B (Homo sapiens, UniProt P78356) IC50 of CCc1cccc2c1CC(=O)N2c1ccc(-c2cncc(-c3ccnc4c3cc3n4CCN(C)C3=O)c2)cc1 is 1000 to 2500 nM

Short answer on PIP4K2B (Homo sapiens, UniProt P78356) for O=C1CCCN1c1ccc(-c2cncc(-c3c4n(c5ncc(Br)cc35)CCC4)c2)cc1 , IC50: 10 to 100 nM

Now look at this one.
IC50 value, target or system PIP4K2B (Homo sapiens, UniProt P78356), for Cc1ccc2c(c1)OCCN2C(=O)c1cc2c(-c3cncc(-c4ccc(N5CCCC5=O)cc4)c3)ccnc2[nH]1 : 100 to 1000 nM

---

Literature compilation of IC50 measurements on PIP4K2B (Homo sapiens, UniProt P78356).

Some solved cases for reference:
Summary line: O=C(Nc1cncc(Nc2ccc(-c3ccc(N4CCCC4=O)cc3)cn2)c1)N1CCOC(C2CC2)C1 (stereo not shown) , PIP4K2B (Homo sapiens, UniProt P78356), reported IC50 = 10 to 100 nM

Summary line: CN(C)C(=O)c1cnc2[nH]c(C3CC3)c(-c3cncc(-c4ccc(N5CCCC5=O)cc4)c3)c2c1 , PIP4K2B (Homo sapiens, UniProt P78356), reported IC50 = 10 to 100 nM

The molecule CN(C)C(=O)c1ccc(-c2cc(-c3ccnc4[nH]c(C(=O)N5CCS(=O)(=O)CC5)cc34)cnc2N)nc1 on PIP4K2B (Homo sapiens, UniProt P78356): IC50 was 100 to 1000 nM

Further cases:
PIP4K2B (Homo sapiens, UniProt P78356) data for CN(C)C(=O)c1ccc(-c2cc(-c3ccnc4[nH]c(C(=O)NCC(N)=O)cc34)cnc2N)nc1 ; its IC50: 10 to 100 nM

Entry O=C(NCc1ccncc1)c1cc2c(-c3cncc(-c4ccc(N5CCCC5=O)cc4)c3)ccnc2[nH]1 : IC50 on PIP4K2B (Homo sapiens, UniProt P78356) = 10 to 100 nM

Bench note, PIP4K2B (Homo sapiens, UniProt P78356): entry Cc1cnnn1-c1ccc2c(c1)OC(C)(C)c1nc(Nc3cnc4c(c3)N(C(=O)NC3CC3)CCO4)ncc1-2 , its IC50 = 1 to 10 nM

# value of IC50, PIP4K2B (Homo sapiens, UniProt P78356), item CN(C)C(=O)c1ccc(-c2ccc(Nc3cncc(NC(=O)C4CC4c4ccccc4)c3)nc2)cc1 (stereo not shown) = 10 to 100 nM
